// provenance: patent US10208074B2

System: IL-23 (p19/p40)
measurement_protocol: IL23-p19 ELISA, Dendritic, LPS (compound screening using DC cells)
Format: cell-based, Human
particulars: Homo sapiens, 18 h, read-out: IL23-p19 ELISA, Dendritic, LPS, 10 pt, EC50 (μM)
Each entry below carries its recorded EC50.
Give just the number in µM; leave the unit off.

The following molecules have reported results that may help.
>  <molecule>
CCO[C@H]1C[C@@H](n2cc(NC(=O)c3csc(-c4cnn(COP(=O)(O)O)c4)n3)c(-c3ccccn3)n2)C1 [II-82]

>  <measure>
EC50

>  <value>
0.176

$$$$
>  <molecule>
COCCn1cc(NC(=O)c2ccc(-c3cnn(COP(=O)(O)O)c3)o2)c(-c2ccccn2)n1 [Compound I-14, phosphate]

>  <measure>
EC50

>  <value>
0.571

$$$$
>  <molecule>
Cn1cc(NC(=O)c2csc(-c3cnn(COP(=O)(O)O)c3)n2)c(-c2ccccn2)n1 [II-38, phosphate]

>  <measure>
EC50

>  <value>
0.771

$$$$

--- query ---
// query Query (molecule): Cn1cc(-c2ccc(C(=O)Nc3cn(CC(C)(C)O)nc3-c3ccccn3)o2)cn1 [Compound I-1, 2,2,2-trifluoroacetate] ; field requested: EC50
// result 3.73
